Let's look at some molecules and their measured IC50.
- Target System: Recombinant human DDR2 (Homo sapiens (Human))
- Sequence (Q16832 427-855): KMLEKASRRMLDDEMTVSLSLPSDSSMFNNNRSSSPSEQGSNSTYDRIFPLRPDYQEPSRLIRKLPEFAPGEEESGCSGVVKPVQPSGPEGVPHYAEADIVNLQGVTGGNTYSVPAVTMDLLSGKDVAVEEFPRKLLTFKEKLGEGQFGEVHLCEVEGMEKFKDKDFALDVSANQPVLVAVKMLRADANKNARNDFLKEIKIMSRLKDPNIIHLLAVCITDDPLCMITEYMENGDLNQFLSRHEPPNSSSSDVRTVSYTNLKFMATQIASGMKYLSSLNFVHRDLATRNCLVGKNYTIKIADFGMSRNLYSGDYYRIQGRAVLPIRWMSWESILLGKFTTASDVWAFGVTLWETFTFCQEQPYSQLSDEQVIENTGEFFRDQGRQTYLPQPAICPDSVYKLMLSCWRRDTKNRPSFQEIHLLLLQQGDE
- Experimental Protocol: LanthaScreen Eu Kinase Binding Assay, DDR2
- Run Parameters: DDR2 1.75 nM (aa427-855, GST tag), Kinase Tracer 178 10 nM; read-out: DDR2 pIC50 (converted)
- Method: DDR1 and DDR2 Biochemical Assay Method The capacity of compounds to bind to DDR1 and DDR2 was quantified using a LanthaScreen Eu Kinase Binding Assay. […] Following 60-minute incubation at room temperature, time-resolved fluorescence was measured on a BMG Labtech PHERAstar plate reader. […] Data was analysed using a four-parameter logistic model to calculate IC50 values, with at least two independent replicates were performed for each compound.

| Molecule | IC50 |
| --- | --- |
| O=C(CN1Cc2cccc(Nc3cnc4[nH]ncc4c3)c2C1=O)NC1CC1(F)F (centres unmarked) [Example 75] | 100 to 1000 nM |
| Cn1ncc2nc(Nc3cccc4c3C(=O)N(CC(=O)N3CCC[C@H]3C(F)(F)F)C4)ccc21 [Example 85] | 10 to 100 nM |
| Cc1nn(C)c2ncc(Nc3cccc4c3C(=O)N(CC(=O)N3CCC[C@H]3C(F)(F)F)C4)cc12 [Example 102] | 100 to 1000 nM |
| C[C@H](NC(=O)CN1Cc2cccc(Nc3cnc4[nH]ncc4c3)c2C1=O)C(F)(F)F [Example 73] | 10 to 100 nM |
| Cn1ncc2cc(Nc3cccc4c3C(=O)N(CC(=O)N3CCOCC3C(F)(F)F)C4)ccc21 (centres unmarked) [Example 31] | 10 to 100 nM |

Values from patent US20260069571A1
